# system.name: Dopamine D2 receptor (Rattus norvegicus, UniProt P61169)
# Sequence (P61169 whole entry): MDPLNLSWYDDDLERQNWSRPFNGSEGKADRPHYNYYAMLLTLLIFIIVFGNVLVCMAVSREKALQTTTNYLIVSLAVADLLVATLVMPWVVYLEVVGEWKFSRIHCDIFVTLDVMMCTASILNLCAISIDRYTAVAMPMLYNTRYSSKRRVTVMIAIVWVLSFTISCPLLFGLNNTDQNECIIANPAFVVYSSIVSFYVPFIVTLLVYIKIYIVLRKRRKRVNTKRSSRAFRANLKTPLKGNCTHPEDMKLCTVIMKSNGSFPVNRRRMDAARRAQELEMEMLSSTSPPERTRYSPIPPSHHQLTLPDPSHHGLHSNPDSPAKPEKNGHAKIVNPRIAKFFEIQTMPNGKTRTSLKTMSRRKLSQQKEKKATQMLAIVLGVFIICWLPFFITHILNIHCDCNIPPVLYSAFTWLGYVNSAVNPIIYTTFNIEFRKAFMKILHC
# measurement.description: Dopamine D2 receptor binding assay ([3H]-raclopride)
# experimental.setup: Dopamine D2 receptor binding test, rat corpus striatum membrane, Ki calculated from IC50 by Cheng-Prussoff formula
A collection of molecules and their measured Ki
readout.label: Ki (nM)

>>> readout_number("COc1cc(CN(C)C)ccc1OCCCN1CCN(c2cccc3sccc23)CC1 [Example 301]")
0.2
>>> readout_number("CNC(=O)c1cnc(OCCCN2CCN(c3cccc4sccc34)CC2)cn1 [Example 61]")
5
>>> readout_number("CC(=O)Nc1ccc(OCCCN2CCN(c3cccc4sccc34)CC2)cc1 [Example 343]")
0.9
>>> readout_number("COC(=O)N1CCN(c2cc(CO)c(OCCCN3CCN(c4cccc5sccc45)CC3)c(OC)c2)CC1 [Example 1087]")
0.3
>>> readout_number("Cc1ccc(OCCCN2CCN(c3cccc4sccc34)CC2)cn1 [Example 40]")
3.1
>>> readout_number("O=C1Nc2cc(OCCCCN3CCN(c4cccc5sccc45)CC3)ccc2CO1 [Example 133]")
0.3
>>> readout_number("COc1cc(NC=O)cc(C)c1OCCCN1CCN(c2cccc3sccc23)CC1 [Example 354]")
0.2
>>> readout_number("O=C(NCCCn1ccnc1)c1ccc(OCCCN2CCN(c3cccc4sccc34)CC2)cc1 [Example 650]")
1.2
>>> readout_number("CNC(=O)c1ccc(OCCCCN2CCN(c3cccc4sccc34)CC2)cc1 [Example 170]")
1

---

A collection of compounds and their measured pKi
# system.name: Dopamine D2 receptor (Rattus norvegicus)
# measurement.description: Dopamine D2 receptor binding assay ([3H]-raclopride)
# experimental.setup: Dopamine D2 receptor binding test, rat corpus striatum membrane, Ki calculated from IC50 by Cheng-Prussoff formula
pKi: −log10 of the molar value.
readout.label: pKi

>>> readout_number("O=C1CCOc2cc(OCCCN3CCN(c4cccc5sccc45)CC3)ccc2N1 [Example 1027]")
8.72
>>> readout_number("CCNC(=O)Cc1ccc(OCCCN2CCN(c3cccc4sccc34)CC2)cc1 [Example 323]")
8.82
>>> readout_number("COc1cc(N2CCOC2=O)cc(C)c1OCCCN1CCN(c2cccc3sccc23)CC1 [Example 358]")
9.70
>>> readout_number("CNC(=O)c1ccc(OCCCN2CCN(c3cccc4sccc34)CC2)c(C)c1 [Example 186]")
8.89
>>> readout_number("CCNC(=O)c1ccc(OCCCN2CCN(c3cccc4sccc34)CC2)nc1 [Example 26]")
8.59
>>> readout_number("COc1cc(NC(=O)CNC(C)=O)cc(C)c1OCCCN1CCN(c2cccc3sccc23)CC1 [Example 1061]")
10.00
>>> readout_number("Cn1nc(C(N)=O)cc1OCCCN1CCN(c2cccc3sccc23)CC1 [Example 4]")
8.72
>>> readout_number("CCNC(=O)c1ccnc(OCCCN2CCN(c3cccc4sccc34)CC2)c1 [Example 32]")
8.60
>>> readout_number("CCNCc1ccc(OCCCN2CCN(c3cccc4sccc34)CC2)cc1 [Example 286]")
9.70
>>> readout_number("CN(C)Cc1ccc(OCCCN2CCN(c3cccc4sccc34)CC2)c(Cl)c1 [Example 303]")
9.00
>>> readout_number("CNC(=O)c1cc(OCCCN2CCN(c3cccc4sccc34)CC2)ncn1 [Example 58]")
8.70
>>> readout_number("COC(=O)Nc1ccc(OCCCN2CCN(c3cccc4sccc34)CC2)c(F)c1 [Example 363]")
8.70
>>> readout_number("CC1(C)C(=O)Nc2ccc(OCCCN3CCN(c4cccc5sccc45)CC3)cc21 [Example 1014]")
8.48
>>> readout_number("CNC(=O)c1cc(OCCCN2CCN(c3cccc4sccc34)CC2)cs1 [Example 76]")
8.60
>>> readout_number("CCNC(=O)c1cc(OCCCN2CCN(c3cccc4sccc34)CC2)n(C)n1 [Example 62]")
8.80
>>> readout_number("CNC(=O)c1cc(C)c(OCCCN2CCN(c3cccc4sccc34)CC2)c(C)c1 [Example 241]")
9.40
>>> readout_number("CCNC(=O)c1cc(OCCCN2CCN(c3cccc4sccc34)CC2)no1 [Example 72]")
8.47
>>> readout_number("CNc1cc(C)c(OCCCN2CCN(c3cccc4sccc34)CC2)c(OC)c1.Cl [Example 11, hydrochloride]")
9.70

---

The next entries give measured Ki for Serotonin 5-HT2A receptor (Rattus norvegicus, UniProt P14842).
readout.label: Ki

>>> result("CCN(C)Cc1ccc(OCCCN2CCN(c3cccc4sccc34)CC2)c(C)c1 [Example 307]")
"0.7 nM"
>>> result("COc1cc(NC(=O)CN)cc(C)c1OCCCN1CCN(c2cccc3sccc23)CC1 [Example 1060]")
"1.2 nM"
>>> result("NS(=O)(=O)c1ccc(OCCCN2CCN(c3cccc4sccc34)CC2)cc1 [Example 394]")
"4.7 nM"
>>> result("O=c1[nH]c2ccc(OCCCN3CCN(c4cccc5sccc45)CC3)cc2[nH]1 [Example 112]")
"0.7 nM"
>>> result("O=c1[nH]cnc2ccc(OCCCN3CCN(c4cccc5sccc45)CC3)cc12 [Example 94]")
"2 nM"
>>> result("CNC(=O)c1ccc(OCCCCN2CCN(c3cccc4sccc34)CC2)cc1 [Example 170]")
"3.3 nM"
>>> result("CNC(=O)c1cc(OCCCN2CCN(c3cccc4sccc34)CC2)ncn1 [Example 58]")
"4.9 nM"
>>> result("COc1cc(NC(=O)CNC(=O)OC(C)(C)C)cc(C)c1OCCCN1CCN(c2cccc3sccc23)CC1 [Example 1059]")
"3.8 nM"
>>> result("COc1cc(N2CCCC2)cc(C)c1OCCCN1CCN(c2cccc3sccc23)CC1 [Example 1076]")
"12.4 nM"
>>> result("CNc1cc(C)c(OCCCN2CCN(c3cccc4sccc34)CC2)c(OC)c1.Cl [Example 11, hydrochloride]")
"4.4 nM"
>>> result("CN(C)CCc1ccc(OCCCN2CCN(c3cccc4sccc34)CC2)cc1 [Example 382]")
"0.6 nM"
>>> result("COC(=O)N1CCN(c2cc(C)c(OCCCN3CCN(c4cccc5sccc45)CC3)c(OC)c2)C(=O)C1 [Example 1080]")
"3.4 nM"
>>> result("COc1cc(N2CCN(C(C)=O)CC2)cc(CO)c1OCCCN1CCN(c2cccc3sccc23)CC1 [Example 1084]")
"1.4 nM"
>>> result("CNC(=O)c1cnc(OCCCN2CCN(c3cccc4sccc34)CC2)cn1 [Example 61]")
"4.9 nM"
>>> result("CNC(=O)c1cc(C)c(OCCCN2CCN(c3cccc4sccc34)CC2)c(C)c1 [Example 241]")
"0.7 nM"
>>> result("CNC(=O)c1cc(OCCCN2CCN(c3cccc4sccc34)CC2)cs1 [Example 76]")
"1.7 nM"
>>> result("CNC(=O)c1cc(OCCCN2CCN(c3cccc4sccc34)CC2)n(C)n1.Cl [Example 3, hydrochloride]")
"6 nM"
>>> result("COc1cc(CN(C)C)ccc1OCCCN1CCN(c2cccc3sccc23)CC1 [Example 301]")
"0.4 nM"
>>> result("COc1cc(N2CCN(C(C)=O)CC2=O)cc(C)c1OCCCN1CCN(c2cccc3sccc23)CC1 [Example 1079]")
"2.8 nM"
>>> result("CC(=O)Nc1cc(OCCCN2CCN(c3cccc4sccc34)CC2)n(C)n1 [Example 1106]")
"7.1 nM"
>>> result("Cc1ccc(OCCCN2CCN(c3cccc4sccc34)CC2)cn1 [Example 40]")
"0.6 nM"
>>> result("O=C1CCOc2cc(OCCCN3CCN(c4cccc5sccc45)CC3)ccc2N1 [Example 1027]")
"2 nM"
>>> result("CNC(=O)c1cc(C)c(OCCCN2CCN(c3cccc4sccc34)CC2)c(OC)c1 [Example 252]")
"0.3 nM"
>>> result("CCNC(=O)c1csc(OCCCN2CCN(c3cccc4sccc34)CC2)n1 [Example 73]")
"5.6 nM"
>>> result("CCNC(=O)c1ccnc(OCCCN2CCN(c3cccc4sccc34)CC2)c1 [Example 32]")
"1.4 nM"
>>> result("COc1cc(N2CCOC2=O)cc(CO)c1OCCCN1CCN(c2cccc3sccc23)CC1 [Example 1071]")
"1.3 nM"
>>> result("COC(=O)Nc1ccc(OCCCN2CCN(c3cccc4sccc34)CC2)c(F)c1 [Example 363]")
"1.1 nM"
>>> result("NC(=O)c1csc(OCCCN2CCN(c3cccc4sccc34)CC2)n1 [Example 7]")
"2.9 nM"
>>> result("COc1cc(NC(=O)CNC(C)=O)cc(C)c1OCCCN1CCN(c2cccc3sccc23)CC1 [Example 1061]")
"1.2 nM"
>>> result("COc1cc(C(=O)NCC(OC)OC)cc(C)c1OCCCN1CCN(c2cccc3sccc23)CC1 [Example 802]")
"1.4 nM"
>>> result("CN(C)C(=O)c1csc(OCCCN2CCN(c3cccc4sccc34)CC2)n1 [Example 1113]")
"5 nM"
>>> result("COc1cc(N2CCN(C(C)=O)CC2)cc(C)c1OCCCN1CCN(c2cccc3sccc23)CC1 [Example 1083]")
"1.5 nM"
>>> result("CCNCc1ccc(OCCCN2CCN(c3cccc4sccc34)CC2)cc1 [Example 286]")
"0.8 nM"
>>> result("CC1(C)C(=O)Nc2ccc(OCCCN3CCN(c4cccc5sccc45)CC3)cc21 [Example 1014]")
"4.2 nM"
